Test system: HEK-293T
Measurement protocol: Multiplex assay against HEK293T
Type: toxicity, cell-based
Assay setup: human, 48 h, 10 µM, compound concentration 10 uM, replicate 2
# cutoff 20% applies to Population Mitotic Cells (%); >= gives Yes, < gives No

[
  {
    "Molecule": "Cl.Cl.Nc1ncnc2c1c(-c1cccc(OCc3ccccc3)c1)cn2[C@H]1C[C@@H](CN2CCC2)C1",
    "Group label": "No"
  },
  {
    "Molecule": "O=C(O)c1ccc2cc(-c3ccc(O)c(C45CC6CC(CC(C6)C4)C5)c3)ccc2c1",
    "Group label": "Yes"
  },
  {
    "Molecule": "CNc1oc(-c2cccc3ccccc23)nc1C#N",
    "Group label": "Yes"
  },
  {
    "Molecule": "CCC(=O)O[C@]1(C(=O)SCF)[C@H](C)C[C@H]2[C@@H]3C[C@H](F)C4=CC(=O)C=C[C@]4(C)[C@@]3(F)[C@@H](O)C[C@@]21C [FLUTICASONE PROPIONATE]",
    "Group label": "Yes"
  },
  {
    "Molecule": "COc1cc2c(NC3CCN(C(C)C)CC3)nc(N3CCC(F)(F)CC3)nc2cc1OCCCN1CCCC1",
    "Group label": "No"
  }
]

Asked: Assess whether reported Population Mitotic Cells (%) for CC(C)N1CCC(C)(C)c2cc(C#Cc3ccc(C(=O)O)cc3)ccc21 sits at 20% or higher.
Given back: Yes

Asked: What about CCn1c(-c2nonc2N)nc2cnc(Oc3cccc(NC(=O)c4ccc(OCCN5CCOCC5)cc4)c3)cc21 [GSK-269962A] ?
Given back: No

Asked: Lookup CCc1cc2c(cc1CC)CC(NC[C@H](O)c1ccc(O)c3[nH]c(=O)ccc13)C2
Given back: No

Asked: Also need COc1ccc(NS(=O)(=O)c2sc3ccc(Cl)cc3c2C)cc1N1CCNCC1.Cl , thanks.
Given back: Yes

Asked: One more molecule: Nc1ccc(C(=O)Nc2cccc(-c3nc(N4CCOCC4)c4oc5ncccc5c4n3)c2)cn1
Given back: Yes

Asked: Lookup Cc1nc(Cc2cccc(C(F)(F)F)c2)sc1-c1ccc(C(N)=O)nc1 [TP-024n]
Given back: Yes

Asked: Next molecule: COc1cc(N2CCC(N(C)C)CC2)ccc1Nc1ncc(Cl)c(Nc2ccccc2P(C)(C)=O)n1
Given back: No

Asked: Repeat with CC(C)Oc1ccc(C(=O)N[C@H](CNC(=O)CN(C)C)Cc2ccc(-c3cn4cccc([C@H](C)O)c4n3)cc2)cc1Cl [GSK-923295A]
Given back: Yes

Asked: Do the same for CCCn1c(=O)c2[nH]c(C34CC5CC(CC3C5)C4)nc2n(CCC)c1=O please
Given back: Yes

---

Test system: HEK-293T
Measurement protocol: Multiplex assay against HEK293T
Type: toxicity, cell-based
Assay setup: human, 24 h, 10 µM, compound concentration 10 uM, replicate 2
// reported Population Normal (%) per item
Expressed in %, but write only the number.

Below, 4 molecules whose answers are already recorded.
[
  {
    "Molecule": "COc1ccc(NS(=O)(=O)c2sc3ccc(Cl)cc3c2C)cc1N1CCNCC1.Cl",
    "Units of measure": "%",
    "Population Normal (%)": 91
  },
  {
    "Molecule": "CC(=O)O[C@H]1C(=O)[C@@]2(C)[C@H]([C@H](OC(=O)c3ccccc3)[C@]3(O)C[C@H](OC(=O)[C@H](O)[C@@H](NC(=O)c4ccccc4)c4ccccc4)C(C)=C1C3(C)C)[C@]1(OC(C)=O)CO[C@@H]1C[C@@H]2O",
    "Units of measure": "%",
    "Population Normal (%)": 95
  },
  {
    "Molecule": "CCOc1cc(N2CCC(O)CC2)ccc1Nc1ncc2c(n1)N(C1CCCC1)CCC(=O)N2C",
    "Units of measure": "%",
    "Population Normal (%)": 96
  },
  {
    "Molecule": "Cl.Cl.NC1(c2ccc(-c3nc4ccn5c(=O)[nH]nc5c4cc3-c3ccccc3)cc2)CCC1",
    "Units of measure": "%",
    "Population Normal (%)": 30
  }
]

Asked: Lab request: please report Population Normal (%) under test system HEK-293T for N#Cc1cnc(Nc2cc(NC[C@H]3CNCCO3)c(C(F)(F)F)cn2)cn1
Given back: 91

Asked: Next entry: c1ccc2oc(-c3csc(C4CCN(Cc5nc6ncccc6[nH]5)CC4)n3)cc2c1
Given back: 96

Asked: And what about the molecule CCc1cc2c(cc1CC)CC(NC[C@H](O)c1ccc(O)c3[nH]c(=O)ccc13)C2 ?
Given back: 84

Asked: And COc1cc2c(NC3CCN(C(C)C)CC3)nc(N3CCC(F)(F)CC3)nc2cc1OCCCN1CCCC1 ?
Given back: 85

Asked: Cc1cn(-c2cc(NC(=O)c3ccc4c(c3)CN(c3cncnc3)C[C@@H]4C)cc(C(F)(F)F)c2)cn1 ?
Given back: 96

Origin of measurements: ChEMBL document CHEMBL4689842
